# TARGET: T1, human TIM-3 coupled to Fc (human, UniProt Q8TDQ0 22-200, limits assumed)
# T1 construct: Immobilised on the SPR sensor chip; not shown: Fc part
# TEST_SUMMARY: SPR (ProteOn XPR36), human TIM-3-Fc immobilised, antibody in flow
ASSAY_ENDPOINT: binding result

anti-TIM-3 antibody clone 1D9 (antibody, V domains shown) VH: QVQLQQWGAGLLKPSETLSLTCAVYGGSFSGYYWSWIRQPPGKGLEWIGEINHSGSTNYNPSLKSRVTISVDTSKNQFSLKLSSVTAADTAVYYCARGYYAGDDYWGQGTLVTVSS VL: QSVLTQPPSVSAAPGQKVTISCSGSSSNIGNNYVSWYQQLPGTAPKLLIYGNNWRPSGIPDRFSGSKSGTSATLGITGLQTGDEADYYCEAWDSAYAAGSFGGGTKLTVL: binds
anti-TIM-3 antibody clone 1H10 (antibody, V domains shown) VH: QVQLQQWGAGLLKPSETLSLTCAVYGGSFSGYYWSWIRQPPGKGLEWIGEINHSGSTNYNPSLKSRVTISVDTSKNQFSLKLSSVTAADTAVYYCARGYVAGFDSWGQGTLVTVSS VL: QSVLTQPPSVSAAPGQKVTISCSGSSSNIGNNYVSWYQQLPGTAPKLLIYGNNWRPSGIPDRFSGSKSGTSATLGITGLQTGDEADYYCDSWDYDYAAGVFGGGTKLTVL: binds
anti-TIM-3 antibody clone 1H9 (antibody, V domains shown) VH: QVQLQQWGAGLLKPSETLSLTCAVYGGSFSGYYWSWIRQPPGKGLEWIGEINHSGSTNYNPSLKSRVTISVDTSKNQFSLKLSSVTAADTAVYYCARGYVAGFDDWGQGTLVTVSS VL: QSVLTQPPSVSAAPGQKVTISCSGSSSNIGNNYVSWYQQLPGTAPKLLIYGNNWRPSGIPDRFSGSKSGTSATLGITGLQTGDEADYYCDSWDSADASGVFGGGTKLTVL: binds
